# credit: the Kinase Knowledgebase extract (Sharma et al. 2016)

pIC50: −log10 of the molar value.
This section lists pIC50 readings for EGFR (human) (UniProt P00533).
Measured Property: pIC50

[[record]]
compound_structure_string = "COc1cc2ncnc(NCCc3ccccc3)c2cc1OCCCCCCC(=O)NO"
target_desc = "EGFR (human) (UniProt P00533)"
measured_property = "pIC50"
val = "6.00 to 7.00"

[[record]]
compound_structure_string = "COCCOc1cc2ncnc(Nc3ccc(F)c(Cl)c3)c2cc1OCCCCCCC(=O)NO"
target_desc = "EGFR (human) (UniProt P00533)"
measured_property = "pIC50"
val = "≥ 7.00"

[[record]]
compound_structure_string = "COCCOc1cc2ncnc(Nc3ccc(F)c(Cl)c3)c2cc1NC(=O)CCCCCCC(=O)NO"
target_desc = "EGFR (human) (UniProt P00533)"
measured_property = "pIC50"
val = "≥ 7.00"

[[record]]
compound_structure_string = "COc1cc2ncnc(Nc3ccc(OCc4cccc(F)c4)c(Cl)c3)c2cc1OCCCCCCC(=O)NO"
target_desc = "EGFR (human) (UniProt P00533)"
measured_property = "pIC50"
val = "≥ 7.00"

[[record]]
compound_structure_string = "COc1cc2ncnc(Nc3ccc(F)c(Cl)c3)c2cc1OCCCCCCC(=O)NO"
target_desc = "EGFR (human) (UniProt P00533)"
measured_property = "pIC50"
val = "≥ 7.00"

[[record]]
compound_structure_string = "O=C(CCCCCCCNCc1ccc(-c2ccc3ncnc(Nc4ccc(OCc5cccc(F)c5)c(Cl)c4)c3c2)o1)NO"
target_desc = "EGFR (human) (UniProt P00533)"
measured_property = "pIC50"
val = "≥ 7.00"

[[record]]
compound_structure_string = "C#Cc1cc(Nc2ncnc3cc(OC)c(OCCCCCCC(=O)NO)cc23)ccc1O"
target_desc = "EGFR (human) (UniProt P00533)"
measured_property = "pIC50"
val = "≥ 7.00"

[[record]]
compound_structure_string = "C[C@@H](Nc1ncnc2ccc(OCCCCCC(=O)NO)cc12)c1ccccc1"
target_desc = "EGFR (human) (UniProt P00533)"
measured_property = "pIC50"
val = "6.00 to 7.00"

[[record]]
compound_structure_string = "O=C(COc1ccc2ncnc(Nc3ccc(F)c(Cl)c3)c2c1)NO"
target_desc = "EGFR (human) (UniProt P00533)"
measured_property = "pIC50"
val = "≥ 7.00"

[[record]]
compound_structure_string = "O=C(CCOc1ccc2ncnc(Nc3ccc(F)c(Cl)c3)c2c1)NO"
target_desc = "EGFR (human) (UniProt P00533)"
measured_property = "pIC50"
val = "≥ 7.00"

[[record]]
compound_structure_string = "O=C(CCCCCCOc1ccc2ncnc(Nc3ccc(OCc4cccc(F)c4)c(Cl)c3)c2c1)NO"
target_desc = "EGFR (human) (UniProt P00533)"
measured_property = "pIC50"
val = "≥ 7.00"

[[record]]
compound_structure_string = "COc1ccc([C@@H](C)Nc2ncnc3cc(OC)c(OCCCCCCC(=O)NO)cc23)cc1"
target_desc = "EGFR (human) (UniProt P00533)"
measured_property = "pIC50"
val = "≤ 5.00"

